Target under test: ΔF508-CFTR (Homo sapiens, UniProt P13569, DEL508-508)
Sequence (P13569 with tags, fused parts or gaps DEL508-508): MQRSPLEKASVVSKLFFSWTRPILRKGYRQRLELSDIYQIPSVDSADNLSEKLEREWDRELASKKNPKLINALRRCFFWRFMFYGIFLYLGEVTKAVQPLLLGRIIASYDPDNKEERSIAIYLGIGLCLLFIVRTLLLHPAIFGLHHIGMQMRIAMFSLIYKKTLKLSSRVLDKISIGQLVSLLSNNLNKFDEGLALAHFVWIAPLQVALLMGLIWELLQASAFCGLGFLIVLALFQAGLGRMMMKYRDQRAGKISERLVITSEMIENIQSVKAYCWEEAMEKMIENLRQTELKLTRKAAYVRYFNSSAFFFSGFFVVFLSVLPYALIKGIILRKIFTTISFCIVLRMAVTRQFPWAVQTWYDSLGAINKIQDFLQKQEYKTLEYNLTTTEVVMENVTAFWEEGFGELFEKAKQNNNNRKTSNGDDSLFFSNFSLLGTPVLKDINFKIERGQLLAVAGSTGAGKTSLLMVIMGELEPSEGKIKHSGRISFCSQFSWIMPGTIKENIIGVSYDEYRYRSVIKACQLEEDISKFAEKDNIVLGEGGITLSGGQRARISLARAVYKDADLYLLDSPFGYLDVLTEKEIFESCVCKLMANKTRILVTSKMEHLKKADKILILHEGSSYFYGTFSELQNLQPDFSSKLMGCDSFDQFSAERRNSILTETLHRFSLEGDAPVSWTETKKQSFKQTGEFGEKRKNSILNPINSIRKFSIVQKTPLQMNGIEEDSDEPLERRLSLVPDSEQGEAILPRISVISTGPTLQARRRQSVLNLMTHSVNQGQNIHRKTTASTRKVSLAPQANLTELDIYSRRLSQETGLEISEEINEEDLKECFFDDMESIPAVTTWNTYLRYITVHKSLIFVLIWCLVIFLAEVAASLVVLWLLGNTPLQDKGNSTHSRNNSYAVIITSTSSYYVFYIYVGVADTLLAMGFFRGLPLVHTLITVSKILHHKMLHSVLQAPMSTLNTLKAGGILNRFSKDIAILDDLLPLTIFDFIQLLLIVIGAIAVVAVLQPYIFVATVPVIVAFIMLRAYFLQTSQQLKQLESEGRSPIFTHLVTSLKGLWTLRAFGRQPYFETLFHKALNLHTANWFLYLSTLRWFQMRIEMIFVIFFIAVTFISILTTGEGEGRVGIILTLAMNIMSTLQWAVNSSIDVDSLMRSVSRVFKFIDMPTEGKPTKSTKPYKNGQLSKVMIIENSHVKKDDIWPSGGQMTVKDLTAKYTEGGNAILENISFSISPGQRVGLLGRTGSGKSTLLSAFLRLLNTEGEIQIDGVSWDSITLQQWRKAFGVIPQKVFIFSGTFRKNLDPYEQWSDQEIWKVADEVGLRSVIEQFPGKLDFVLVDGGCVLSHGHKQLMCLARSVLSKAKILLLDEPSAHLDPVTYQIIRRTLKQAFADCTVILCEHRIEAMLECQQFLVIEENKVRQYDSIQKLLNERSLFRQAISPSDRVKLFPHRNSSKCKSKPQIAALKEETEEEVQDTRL
Assay comment: Membrane potential optical (FRET/VIPR) assay, identification of potentiator compounds
Condition: Table 3; assay not given

| Substance smiles | EC50 |
| --- | --- |
| O=C(Nc1cc2ccccc2cn1)c1c[nH]c2ccccc2c1=O | 25 to 60 µM |
| Cc1cc2ccc(NC(=O)c3c[nH]c4ccccc4c3=O)cc2[nH]1 | < 10 µM |
| CC(C)(C)c1cc(C(C)(C)C)c(NC(=O)c2c[nH]c3ccc(O)cc3c2=O)cc1O | < 10 µM |
| O=C(Nc1ccc(N2CCOCC2)cc1C(F)(F)F)c1c[nH]c2ccccc2c1=O | < 10 µM |
| COc1nc2ccccc2c(OC)c1C(=O)Nc1ccccc1-c1ccccc1 | 10 to 25 µM |
| O=C(Nc1cccc2c1Cc1ccccc1-2)c1c[nH]c2ccccc2c1=O | < 10 µM |
| O=C(Nc1ccc(N2CCOCC2)cc1)c1c[nH]c2ccccc2c1=O | 25 to 60 µM |
| COc1ccc(NC(=O)c2c[nH]c3ccccc3c2=O)cn1 | 25 to 60 µM |
| O=C(Nc1ccccc1-n1cccc1)c1c[nH]c2ccccc2c1=O | 10 to 25 µM |

* * *

Target under test: ΔF508-CFTR (Homo sapiens, UniProt P13569, DEL508-508)
Assay comment: Membrane potential optical (FRET/VIPR) assay, identification of potentiator compounds
Condition: Table 3; assay not given
pEC50: −log10 of the molar value.
Test readout: pEC50

| Substance smiles | Target under test | Result |
| --- | --- | --- |
| COc1ccc(C(C)C)cc1-c1ccccc1NC(=O)c1c[nH]c2ccccc2c1=O | ΔF508-CFTR (Homo sapiens, UniProt P13569, DEL508-508) | > 5.00 |
| O=C(Nc1cc(NS(=O)(=O)CCN2CCOCC2)cc(C(F)(F)F)c1)c1c[nH]c2ccccc2c1=O | ΔF508-CFTR (Homo sapiens, UniProt P13569, DEL508-508) | 4.60 to 5.00 |
| O=C(Nc1ccccc1-c1ccc(Cl)cc1)c1c[nH]c2ccccc2c1=O | ΔF508-CFTR (Homo sapiens, UniProt P13569, DEL508-508) | > 5.00 |
| CCc1ccc(NC(=O)c2c[nH]c3ccccc3c2=O)cc1NC(C)=O | ΔF508-CFTR (Homo sapiens, UniProt P13569, DEL508-508) | 4.60 to 5.00 |
| O=C(Nc1cc(C(F)(F)F)ccc1C(F)(F)F)c1c[nH]c2ccccc2c1=O | ΔF508-CFTR (Homo sapiens, UniProt P13569, DEL508-508) | > 5.00 |
| CC(=O)c1ccc2c(=O)c(C(=O)Nc3cc(O)c(C(C)(C)C)cc3C(C)(C)C)c[nH]c2c1 | ΔF508-CFTR (Homo sapiens, UniProt P13569, DEL508-508) | > 5.00 |
| O=C(Nc1ccc(N2CCC[C@@H]2CO)cc1C(F)(F)F)c1c[nH]c2ccccc2c1=O | ΔF508-CFTR (Homo sapiens, UniProt P13569, DEL508-508) | > 5.00 |
| COc1ccc(C(C)(C)C)cc1NC(=O)c1c[nH]c2ccccc2c1=O | ΔF508-CFTR (Homo sapiens, UniProt P13569, DEL508-508) | > 5.00 |
